Sourced from the supplement of paper PMC8866396

System: IL-6-GFP PC-9GR
method-summary: cell viability (CCK-8 OD) relative to DMSO control (fraction of control); higher = more viable cells
assay-conditions: compound concentration: 10 uM; treatment time: 48 h
Task for the reader: assign each of the following molecules its reported cell viability.
One number for each entry.

Cc1ccc(C(C)C)cc2c(C)ccc1-2    0.98
CC(N)c1ccc(C(=O)Nc2ccnc3[nH]ccc23)cc1.Cl.Cl (centres undefined)    0.973
CC1CC2C3CCC4=CC(=O)C=CC4(C)C3C(=O)CC2(C)C1(O)C(=O)CO (centres undefined)    1.25

Switching to the query record.
Retrieve cell viability measured for `CN1CCC(=C2c3ccccc3CCn3c(C=O)cnc32)CC1` and print it. 0.751

* * *

Tested on: IL-6-GFP PC-9
method-summary: cell viability (CCK-8 OD) relative to DMSO control (fraction of control); higher = more viable cells
assay-conditions: compound concentration: 10 uM; treatment time: 48 h
For each entry below, report its cell viability value.

Check out these entries, answers already filled in.
Cc1cc(S(=O)(=O)[O-])c2c(C)ccc(C(C)C)cc1-2.[Na+] [Sodium gualenate]    0.583
COc1ccc2cc1Oc1ccc(cc1)CC1c3cc(c(OC)cc3CCN1C)Oc1c(O)c(OC)cc3c1C(C2)N(C)CC3 (stereo not given)    1.09
COc1nc2ccc(Br)cc2cc1C(c1ccccc1)C(O)(CCN(C)C)c1cccc2ccccc12 (stereo not given)    0.85

Please state, for each entry, its recorded cell viability.
1. CCc1ccc(Cc2ccc3c(c2)C2(OC3)OC(CO)C(O)C(O)C2O)cc1.O (stereo not given)
2. Cn1nnc2c(C(N)=O)ncn2c1=O [Temozolomide]

1: 1.02; 2: 0.698

* * *

Tested on: IL-6-GFP PC-9
method-summary: cell viability (CCK-8 OD) relative to DMSO control (fraction of control); higher = more viable cells
assay-conditions: compound concentration: 10 uM; treatment time: 48 h
metric-name: cell viability
Answers are plain numbers.

Here is how some compounds turned out for cell viability.
O=C(c1cc(Cc2n[nH]c(=O)c3ccccc23)ccc1F)N1CCN(C(=O)C2CC2)CC1    1.16
COc1cc(N2CCC(N3CCN(C)CC3)CC2)ccc1Nc1ncc(Cl)c(Nc2ccccc2P(C)(C)=O)n1    0.41
COC(=O)c1cc(OC)c2c(c1-c1c(CO)cc(OC)c3c1OCO3)OCO2    0.934
CC1CC2C3CCC4=CC(=O)C=CC4(C)C3(F)C(O)CC2(C)C1(O)C(=O)CO (stereo unspecified) [Betamethasone]    1.29
CCC1(O)CC2CN(CCc3c([nH]c4ccccc34)C(C(=O)OC)(c3cc4c(cc3OC)N(C=O)C3C(O)(C(=O)OC)C(OC(C)=O)C5(CC)C=CCN6CCC43C65)C2)C1.O=S(=O)(O)O (stereo unspecified) [Vincristine sulfate]    0.553

Check the records and state cell viability for `CC/C(=C(/CC)c1ccc(O)cc1)c1ccc(O)cc1` 1.18

* * *

Test system: IL-6-GFP PC-9GR
method-summary: cell viability (CCK-8 OD) relative to DMSO control (fraction of control); higher = more viable cells
assay-conditions: compound concentration: 10 uM; treatment time: 48 h
For each of the molecules below, state its cell viability.
One number for each entry.

Hi there! I need cell viability for each item below, if you can.
1. CC(OC1OCCN(Cc2n[nH]c(=O)[nH]2)C1c1ccc(F)cc1)c1cc(C(F)(F)F)cc(C(F)(F)F)c1 (stereo not given) [Aprepitant]
2. CNC1CCC(c2ccc(Cl)c(Cl)c2)c2ccccc21.Cl (stereo not given) [Sertraline HCl]
3. COc1cccc2c1C(=O)c1c(O)c3c(c(O)c1C2=O)CC(O)(C(C)=O)CC3OC1CC(N)C(O)C(C)O1.Cl (stereo not given) [Daunorubicin HCl]
4. CCCCC1C(=O)N(c2ccccc2)N(c2ccccc2)C1=O
5. COc1cc(Nc2c(C#N)cnc3cc(OCCCN4CCN(C)CC4)c(OC)cc23)c(Cl)cc1Cl [Bosutinib (SKI-606)]

[1.01, 0.338, 0.0902, 1.34, 0.448]

* * *

Test system: IL-6-GFP PC-9
method-summary: cell viability (CCK-8 OD) relative to DMSO control (fraction of control); higher = more viable cells
assay-conditions: compound concentration: 10 uM; treatment time: 48 h
Decide using cell viability alone. Strictly below 1: True. Equal to or above 1: False.

Reference set (10 entries):
CC(C)Cc1ccc(C(C)C(=O)OCc2ccccn2)cc1 (configuration not stated) [Ibuprofen piconol]    False
CC12CCC(CC1=O)C2(C)C (configuration not stated) [Camphor]    True
CCC1=CC2CN(C1)Cc1c([nH]c3ccccc13)C(C(=O)OC)(c1cc3c(cc1OC)N(C)C1C(O)(C(=O)OC)C(OC(C)=O)C4(CC)C=CCN5CCC31C54)C2.O=C(O)C(O)C(O)C(=O)O.O=C(O)C(O)C(O)C(=O)O (configuration not stated) [Vinorelbine Tartrate]    True
Cc1ccc(C(C)C)c(O)c1 [Thymol]    False
CC(C)c1nc(CN(C)C(=O)NC(CCN2CCOCC2)C(=O)NC(CCC(Cc2ccccc2)NC(=O)OCc2cncs2)Cc2ccccc2)cs1 (configuration not stated) [Cobicistat (GS-9350)]    False
O=C(/C=C/c1cccc(S(=O)(=O)Nc2ccccc2)c1)NO [Belinostat (PXD101)]    True
CC(C)C1C(=O)NC(CCCNC(=N)N)C(=O)NCC(=O)NC(CC(=O)O)C(=O)NC(Cc2ccccc2)C(=O)N1C.O=C(O)C(F)(F)F (configuration not stated)    False
Cc1ccc(C(C)C)cc2c(C)ccc1-2 [Guaiazulene]    True
CNC(=O)c1ccc(N2C(=S)N(c3ccc(C#N)c(C(F)(F)F)c3)C(=O)C2(C)C)cc1F [Enzalutamide (MDV3100)]    True
O=c1cc[nH]c(=O)[nH]1 [Uracil]    True

Read the next record carefully.
Dear reviewer, please state whether O=C(O)COC(=O)Cc1ccccc1Nc1c(Cl)cccc1Cl [Aceclofenac] has cell viability strictly beneath 1. False

* * *

Would you kindly list cell viability for each of these compounds?
Test system: IL-6-GFP PC-9GR
method-summary: cell viability (CCK-8 OD) relative to DMSO control (fraction of control); higher = more viable cells
assay-conditions: compound concentration: 10 uM; treatment time: 48 h

Examples with answers:
Cc1cc(Nc2ncc(Cl)c(Nc3ccccc3S(=O)(=O)C(C)C)n2)c(OC(C)C)cc1C1CCNCC1 [Ceritinib (LDK378)]    0.091
CCOC(=O)C(CCc1ccccc1)NC1CSC(c2cccs2)CN(CC(=O)O)C1=O (stereo not given) [Temocapril]    0.726
C=C(NC(=O)C(=C)NC(=O)c1csc(C2=NC3c4csc(n4)C4NC(=O)c5csc(n5)C(C(C)(O)C(C)O)NC(=O)C5CSC(=N5)/C(=C/C)NC(=O)C(C(C)O)NC(=O)c5csc(n5)C3(CC2)NC(=O)C(C)NC(=O)C(=C)NC(=O)C(C)NC(=O)C(C(C)CC)NC2C=Cc3c(C(C)O)cc(nc3C2O)C(=O)OC4C)n1)C(N)=O (stereo not given) [Thiostrepton]    0.184
CCC1(O)CC2CN(CCc3c([nH]c4ccccc34)C(C(=O)OC)(c3cc4c(cc3OC)N(C=O)C3C(O)(C(=O)OC)C(OC(C)=O)C5(CC)C=CCN6CCC43C65)C2)C1.O=S(=O)(O)O (stereo not given) [Vincristine sulfate]    0.587

Look up and state reported cell viability for COc1cc(C2Oc3ccc(C4Oc5cc(O)cc(O)c5C(=O)C4O)cc3OC2CO)ccc1O (stereo not given) [Silymarin] 1.53

* * *

System: IL-6-GFP PC-9
method-summary: cell viability (CCK-8 OD) relative to DMSO control (fraction of control); higher = more viable cells
assay-conditions: compound concentration: 10 uM; treatment time: 48 h
Hi there, I'd appreciate the recorded cell viability for every entry that follows.
Give bare numbers.

O=NN(CCCl)C(=O)NC1CCCCC1    0.951

Required: cell viability, one value per molecule below.
1. Cc1ccc(NC(=O)c2ccc(CN3CCN(C)CC3)cc2)cc1Nc1nc(-c2cccnc2)cs1
2. CC1CC2C3CC(F)C4=CC(=O)C=CC4(C)C3(F)C(O)CC2(C)C1(OC(=O)c1ccco1)C(=O)SCF (stereo not drawn) [fluticasone furoate]

1: 0.366; 2: 0.961

* * *

Record form. Attribute: cell viability. Fill in for each entry.
Tested on: IL-6-GFP PC-9GR
method-summary: cell viability (CCK-8 OD) relative to DMSO control (fraction of control); higher = more viable cells
assay-conditions: compound concentration: 10 uM; treatment time: 48 h
Give bare numbers.

As a guide, the following entries are already answered.
CC12CCC(=O)C=C1CCC1C2C(O)CC2(C)C1CCC2(O)C(=O)CO (stereo unspecified) [Hydrocortisone]    1.41
CC1CC2C3CC(F)C4=CC(=O)C=CC4(C)C3(F)C(O)CC2(C)C1(OC(=O)c1ccco1)C(=O)SCF (stereo unspecified) [fluticasone furoate]    0.711
CNCC(O)C(O)C(O)C(O)CO.Cc1c(Nc2ncccc2C(=O)O)cccc1C(F)(F)F    1.15
COc1ccc2cc1Oc1ccc(cc1)CC1c3c(cc4c(c3Oc3cc5c(cc3OC)CCN(C)C5C2)OCO4)CCN1C (stereo unspecified)    0.824
Cc1ccc(NC(=O)c2ccc(CN3CCN(C)CC3)cc2)cc1Nc1nc(-c2cccnc2)cs1    0.268

For each of the items listed, what is its cell viability?
1. Cn1c(=O)cc(N2CCCC(N)C2)n(Cc2ccccc2C#N)c1=O (stereo unspecified) [Alogliptin(SYK-322)benzoate]
2. Nc1nc(CC(=O)Nc2ccc(CCNCC(O)c3ccccc3)cc2)cs1 (stereo unspecified)
3. CN1CCC(NC(=O)Nc2ccc(C#N)cc2)CC1c1nc2ccccc2[nH]1 (stereo unspecified)
4. CN1C(C(=O)Nc2ccccn2)=C(O)c2ccccc2S1(=O)=O
5. Cl.N=C1CCCN1Cc1[nH]c(=O)[nH]c(=O)c1Cl [Tipiracil hydrochloride]
6. Nc1ccccc1NC(=O)c1ccc(CNC(=O)OCc2cccnc2)cc1

1: 0.986; 2: 1.09; 3: 0.848; 4: 1.21; 5: 1.14; 6: 0.59
